Cited source for all entries: the supplement of paper PMC6755084

B1: minF1; a variant is named by its letters at N, in order (parent)
chain: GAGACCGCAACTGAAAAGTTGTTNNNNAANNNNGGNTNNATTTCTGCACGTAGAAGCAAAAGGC

variants of: B1; test: fraction ligated after 30 min (ligated reads / total reads); higher = more ligase activity; conditions: with F1*subA RNA substrate (template-directed ligation), 42 °C
READOUT: fraction ligated
# answer = number (no unit)

Which fraction ligated value belongs to ATCGATGGGTT G34A G35T T37G A40G ? 0.000298

So what does the record say about fraction ligated for `TCGATGGGTGA` ? 0.00376

What measured fraction ligated goes with `TAGATGGAGTG` ? 0.00279

Given the variant TCAAGGTGTGA T23A , what is its reported fraction ligated? 0.00305

Sample TCAGGGAGTGA T23A A29T — what was its fraction ligated? 0.000582

Entry CAAAGATGTGA A29T : reported fraction ligated = ? 0.00371

Requested field: fraction ligated. Item: `ATCAATGTTGA` 0.00356

Give the measured fraction ligated of `TCAATGGTTGA` . 0.00179

Returns the measured fraction ligated for the input variant. Input: `ACAGAGGTGTA` 0.00348

Bench note: what fraction ligated did TCAGATGATGA T23A show? 0.00196

Can you look up the measured fraction ligated of ATAGAGGAGTA G34T for me? 0.00281

What measured fraction ligated goes with `ATAGATGTGTG` ? 0.00629

Look up fraction ligated for this variant: TAAAGATGTGA T23A A28T A29G 0.00461

For the variant CAGAGATGTGA A28T A29G , what fraction ligated is on record? 0.00451

Request the reported fraction ligated associated with ATAGTGGAGTT G34T T37G 0.00164

# input variant: `ATAGGATGTGA` ; wanted: its fraction ligated 0.00396

Any idea what its fraction ligated is? The variant is `ATAGATATGTA` 0.00365

So what does the record say about fraction ligated for `CAGATGATTGA` ? 0.0023

What value of fraction ligated has been recorded for this entry: ATAGATGGGTG G34A 0.00708

Would you kindly share the measured fraction ligated for CAGAGATGTGA T23A ? 0.00241

I would be grateful if you could share the reported fraction ligated for ACAGATGGGTT G34T T37G A40G . 0.00113

Consider the variant `ATAAGGATTGA` and give its measured fraction ligated. 0.0033

Param item = `ATCAATGAGTG` ; retrieve measured fraction ligated. 0.00492

Recorded fraction ligated of ATCAGATGTGA A28G A29T , please. 0.00278

Return reported fraction ligated; argument: ACGATGGAGTT G34T T37G A40G 0.00103

Given the entry CGAAGGATGTA A29T , report its measured fraction ligated. 0.00492

Which fraction ligated is reported for this variant? TAGATGAGTGA T23A 0.00274

Field request: fraction ligated | item: `TCGAGGTGTGA` 0.00212

Which fraction ligated value is on record for `ATAATGATGTA` ? 0.00361

// lookup fraction ligated for `ATCGGGATTGA` 0.00341

Entry TCAGGATGTGA A29T : reported fraction ligated = ? 0.00155

Query: fraction ligated; subject: ATCGTGGAGTT G34T T37G A40G 0.00133

Please look up its fraction ligated: ACAGAGGAGTT G34T T37G 0.00192

Fill in the blank: the reported fraction ligated of ATAGGGATGTA A29T is ____. 0.00166

fraction ligated for ATCAAGAGTGA A28G ? 0.00247

What value of fraction ligated has been reported for the following variant? TCAGATGGGTA G34A 0.00212

Recorded fraction ligated for TAGAGGATGTA A29T , please? 0.00262

Request the reported fraction ligated associated with ATCAAAGATGA A28G 0.00211

Item ACAAGGATGTA A29T has what recorded fraction ligated? 0.00548

# fraction ligated lookup, item `ATAGTGATGTA` 0.00203

Fill in the blank: the reported fraction ligated of `ACAATGGTTGA` is ____. 0.00142

Requested field: fraction ligated. Item: TCAGAGGAGTA T23A G34T 0.0014

Item under review: ACGATGGAGTA G34T . Reported fraction ligated? 0.0869

Returns the measured fraction ligated for the input variant. Input: AGAAGATGTGA T23C A29G 0.00313

What does the data say about its fraction ligated? Entry: `ATCAAGGGTGA` 0.00247

Given the entry AGAAGGATGTA T23A A29T , report its measured fraction ligated. 0.00442

For the variant `ATCGATTGTGA` , what fraction ligated is on record? 0.00257

GET /values?readout=fraction ligated&item= TCGATGATTGA T23A 0.00304

Using the record for TCAGGATGTGA T23A , report its fraction ligated. 0.00221

For `ACGAGGATGTG` , what is its reported fraction ligated? 0.00917

Name the reported fraction ligated value associated with the variant ACAGTGGAGTT G34T T37G A40G 0.00141

Requested field: fraction ligated. Item: `TCAGAGGAGTG` 0.00573

Could you tell me which fraction ligated is on file for `ATAGATGTGTA` ? 0.00402

Requested field: fraction ligated. Item: ATCGATGGGTT G34T T37G 0.00156

Could you tell me which fraction ligated is on file for ATCGGGTGTGA A29T ? 0.00298

Which fraction ligated value belongs to CAAAGGATGTA T23A A29T ? 0.000678

Which fraction ligated reading was recorded for the variant `ATCAGGATGTA` ? 0.00297

Could you share which fraction ligated value was measured for ATCAATGGGTA G34T ? 0.0029

Dear colleague, I am looking for the recorded fraction ligated of the following variant: TCAGTGGAGTT G34T T37G A40G 0.00151

Can you share its fraction ligated? I mean this variant: TCGATATGTGA T23A 0.00444

Look up fraction ligated for this variant: TAGATGGAGTT T23A G34T T37G A40G 0.00177

Suppose we examine the variant `ATCAGGATGTG` ; what fraction ligated value has been reported? 0.00943

Form field: reported fraction ligated of ATCAGGATGTA A29T 0.00407

Query: fraction ligated; subject: `TCAATGGATGA` 0.00193

Requested field: fraction ligated. Item: `ATCATGGGTGA` 0.00433

Sample `ATCAATGATGA` — what was its fraction ligated? 0.00478

Return reported fraction ligated; argument: `ACGATATGTGA` 0.00174

Which measured fraction ligated value corresponds to `ATAGAGGATGA` ? 0.00219

Recorded fraction ligated for CAGAGGATTGA A29T , please? 0.0052

Quick one: fraction ligated of `TCAATGGTGTA` ? 0.00227

# get_value(readout='fraction ligated', item= `ATCGAGGGTGA` ) 0.00167

What value of measured fraction ligated is listed for ATCAGGATGTG A28G A29T ? 0.00377

What does the data say about its fraction ligated? Entry: `TCGATGGTGTG` 0.00467

Looking for the measured fraction ligated of `AAGAGGTGTGA` , can you help? 0.00286

// returns reported fraction ligated for input ACAGGATGTGA A29G 0.00108

What value of fraction ligated has been recorded for this entry: ATCAATATTGA A28G 0.00433

Which fraction ligated is reported for this variant? `ATCATATGTGA` 0.00281

I would be grateful if you could share the reported fraction ligated for TAGATGGAGTG T23A . 0.00424

# lookup: fraction ligated of ATCAAATGGTA A28G G34T 0.00212

What value of fraction ligated has been reported for the following variant? ATGAGGATTGA A29T 0.00582

# fraction ligated lookup, item ATCGATGGGTA G34T 0.00207

Query: fraction ligated; subject: TAGAGATGTGA A29T 0.00374

Consider the variant `ATCGTGTGTGA` and give its measured fraction ligated. 0.00325

Which measured fraction ligated value corresponds to AGAAGGATGTG A29T ? 0.00505

Return reported fraction ligated; argument: ATCAATGGGTG A28G 0.00414

I have this variant here, TCAATATGTGA T23A , and I need its recorded fraction ligated. 0.00157

# lookup: fraction ligated of CGAAGATGTGA T23A A28T A29G 0.00787

Param item = CAAAGGAGTGA A29T ; retrieve measured fraction ligated. 0.00216

What fraction ligated value was documented for this variant, CAGAGATGTGA A29G ? 0.00315

Request the reported fraction ligated associated with `ACGATGGTTGA` 0.00307

Query (variant): `TAGAGGTGTGA` ; field requested: fraction ligated 0.00375
